molecular target: SARS-CoV-2 Main Protease (SARS-CoV-2) (UniProt P0DTD1); settings: 20.0 µM
REPORTED ENDPOINT: inhibition (%)
Numbers only, in %.

CNC(=O)OC1CCN(Cc2ccccc2)CC1 = 0.824
O=C(Nc1ccc(Oc2ncccn2)cc1)C(=O)N1CCN(Cc2cccs2)CC1 = 0

Lab note: measured inhibition of C=CC(=O)N(c1ccc2ncsc2c1)C(C(=O)NC(C)(C)C)c1cccnc1 (stereo not drawn) was 0

----------
molecular target: SARS-CoV-2 Main Protease (SARS-CoV-2); conditions: 20.0 µM
Hi there, I'd appreciate the recorded inhibition for every entry that follows.
Answers are plain numbers, in %.

Here is how some compounds turned out for inhibition.
CCC(=O)O[C@@H](OP(=O)(CCCCc1ccccc1)CC(=O)N1C[C@H](C2CCCCC2)C[C@H]1C(=O)O)C(C)C (stereo in doubt) = 4.91
CCc1ccccc1N(CC)C(=O)Nc1cn(C)c(=O)c2ccccc12 = -3.06
CC(=O)N1CCN(Cc2cccc(C#N)c2)CC1 = -0.339

Value sought for every listed compound: inhibition.
1. Cc1ccncc1NC(=O)CC1CCCNC1 (stereo not given)
2. CN1CCC(C(=O)NC2CCCCC2NC(=O)C2CCCCC2)CC1 (stereo not given)
3. C=CC(=O)N(c1ccc(SC)cc1)C(C(=O)NC(C)(C)C)c1cccnc1 (stereo not given)
4. O=C1Nc2cc(Br)ccc2C1=O
5. CCc1ccccc1Nc1nc(N)nc(CSc2nnc3ccccn23)n1
6. N#Cc1ccc(Nc2ccc(NC(=O)Nc3cccnc3)cc2)nc1

OUT:
1: -1.91; 2: -19.4; 3: 3.54; 4: -5.86; 5: 20.9; 6: -1.31
